target: T1, FcRn-p3 fusion protein (human, UniProt P55899 24-297; P61769 21-119); assay: phage ELISA pH6 (est.)
T1 construct: baculovirus expressed; coated on ELISA wells; not shown: amino terminal part of bacteriophage p3 protein and CVDE protein
T1 sequence (P55899 24-297, chain 1 of 2): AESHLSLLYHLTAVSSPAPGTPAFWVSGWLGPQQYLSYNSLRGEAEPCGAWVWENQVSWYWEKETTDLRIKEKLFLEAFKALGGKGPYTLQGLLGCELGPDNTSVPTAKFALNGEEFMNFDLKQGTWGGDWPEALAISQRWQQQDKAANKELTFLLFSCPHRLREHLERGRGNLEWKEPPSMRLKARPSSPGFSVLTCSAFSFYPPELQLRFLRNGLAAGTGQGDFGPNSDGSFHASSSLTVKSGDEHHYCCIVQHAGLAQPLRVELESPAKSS
T1 sequence (P61769 21-119, chain 2 of 2): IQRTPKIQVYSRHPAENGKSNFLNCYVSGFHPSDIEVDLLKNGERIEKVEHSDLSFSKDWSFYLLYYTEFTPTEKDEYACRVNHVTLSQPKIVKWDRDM

binder: T5A_25 (other, EU numbering) GPPCPAPELLGGPSVFLFPPKPKDTLMISRTPEVTCVVEDVSHEDPEVKFNWYVDGVEVHNAKTKPREEQYNSTYRVVSVLTVLHQDWLNGKEYKCKVSNKALPAPIEKTISKAKGQPREPRVYTLPPSRDELTKNQVSLTCLVRGFYPSDIVVEWESNGQPENNYKTTPPVLDSDGSFFLYSKLTVDKSRWQQGNVFSCSVMHEALHSHYTQKSLSLSPGK
unit.string: fold
Ratio/Fc-WT: 14.7

binder: T5A_74B (other, EU numbering) CPPCSAPELLGGPSVFLFPPKPKDTLMISRTPEVTCVVVDVSHEDPEVKFNWYVDGVEVHNAKTKPREEQYNSTYRVVSVLTVLHQDWLDGKEYKCKVSNKALPVPIEKTISKAKGQPREPQVYTLPPSRDELTKDQVSLTCLVKGFYPSDIVVEWESNGQPENNYKTTPPVLDSDGSFFLYSKLTVDKSRWQQGNVFSCSVMHEALHYHYTQKSLSLSPGK
unit.string: fold
Ratio/Fc-WT: 18.8

binder: C3A_13 (other, EU numbering) GPPCPAPELLGGPSVFLFPPKPKDTLMISRTPEVTCVVVDVSHEDPEVKFNWYVDGVEVHNAKTKPREEQYNSTYRVVSVLTVLHQDWLDGKEYKCKVSNKALPVPIEKTISKAKGQPREPQVYTLPPSRDELTKNQVSLTCLVKGFYPSDIAVEWESNGQPENNYKTTPPVLDSDGSFFLYSKLTVDKSRWQQGNVFSCSVMHEALHYHYTQKSLSLSPGK
unit.string: fold
Ratio/Fc-WT: 17.9

binder: C5A_09 (other, EU numbering) CPPCPAPELLGGPSVLLFPPKPKDTLMISRTPEVTCVVEDVSHEDPEVKFNWYVDGVEVHNAKTKPREEQYNSTYRVVSVLPVLHQDWLNGKEYKCKVSNKALPAPIEKTISKAKGQPREPQVYTLPPSRDELTKNQVSLTCLVKGFYPSDIVVEWESNGQPENNYKTTPPVLDSDGSFFLYSKLTVDKSRWQQGNVFSCSVMHEALHSHYTQKSLSLSPGK
unit.string: fold
Ratio/Fc-WT: 15.2

binder: C6A_69D (other, EU numbering) CPLCPAPELLGGPSVFLFPPKPKDTLMISRTPEVTCVVVDVSHEDPEVKFNWYVDGVEVHNAKTKPREEQYNSTYRVVSVLAVLHQDWLDGKEYKCKVSNKALPVPIEKTISKAKGQPREPQVYTLPPSRDELTKNQVSLTCLVKGFYPSDIAVEWVSNGQPETNYKTTPPVLDSDGSFFLYSKLTVDKSRWQQGNVFSCSVMHEALHYHYTQKSLSLSPGK
unit.string: fold
Ratio/Fc-WT: 15.3

binder: C6A_60D (other, EU numbering) CPRCSAPELLGGPSVFLFPPKPKDTLMISRTPEVTCVVVDVSHEDPEVKFNWYVDGVEVHNAKTKPREEQYNSTYRVVSVLTVLHQDWLDGKEYKCKVSNKALPAPIEKTISKAKGQPREPQVYTLPPSRDELTKNQVSLTCLVKGFYPSDIAVEWESNGQPENNYKTTPPVLDSDGSFFLYSKLTVDKSRWQQGNVFSCSVLHEALHYHYTQKSLSLSPGK
unit.string: fold
Ratio/Fc-WT: 23.8

binder: C6A_74D (other, EU numbering) CPRCPAPELLGGPSVFLFPPKPKDTLMISRTPEITCVVVDVSHEDPEVKFNWYVDGVEVHNAKTKPREEQYNSTYRVVSVLTVLHQDWLDGKEYKCKVSNKALPAPIEKTISKAKGQPREPQVYTLPPSRDELTKNQVSLTCLVKGFYPSDIAVEWESNGQPENNYKTTPPVLDSDGSFFLYSKLTVDKSRWQQGNVFSCSVMHEALHYHYTQKSLSLSPGK
unit.string: fold
Ratio/Fc-WT: 59.7

binder: T7A_92 (other, EU numbering) CPPCPAPELLGGPSVFLFPPKPKDTLMISRTPEVTCVVEDVSHEDPEVKFNWYVDGVEVHNAKTKPREEQYNSTYRVVSVLTVLHQDWLNGKEYKCKVSNKALPAPIEKTISKAKGQPREPQVYTLPPSRDELTKNQVSLTCLVKGFYPSDIAVEWESNGQPENNYKTTPLVLDSDGSFFLYSKLTVDKNRWQQGNVFSCSVMHEALHSHYTQKSLSLSPGK
unit.string: fold
Ratio/Fc-WT: 21.4

binder: T5A_57 (other, EU numbering) CPPCPAPELLGGPSVLLFPPKPKDTLMISRTPEVTCVVVDVSHEDPEVKFNWYVDGVEVHNAKTKPREEQYNSTYRVVSVLTVLHQDWLDGKEYKCKVSNKALPVPIEKTISKAKGQPREPQVYTLPPSRDELTKNQVSLTCLVKGFYPSDIAVEWESNGQPENNYRTTPPVLDSDGSFFLYSKLTVDKSRWQQGNVFSCSVMHEALHYHYTQKSLSLSPGK
unit.string: fold
Ratio/Fc-WT: 15.8

binder: T5A_87 (other, EU numbering) CPPCPAPELLGGPSVFLFPPKPKDTLMISRTPEVTCVVVDVSHEDPEVKFNWYVDGVEVHNAKTKPREEQYNSTYRVVSVLTVLHQDWLDGKEYKCKVSNKALPVPIEKTISKAKGQPREPQVYTLPPSRDELTKNRVSLTCLVKGFYPSDIAVEWESNGQPENNYKTTPPVLDSDGSFFLYSKLTVDKSRWQQGNVFSCSVMHEALHYHYTQKSLSLSPGK
unit.string: fold
Ratio/Fc-WT: 25

Source: patent USRE46585
